measured-on: Adrenergic receptor alpha-2 (Rattus norvegicus, UniProt P22086+P19328+P22909)
procedure-summary: Binding affinity against alpha-2 adrenergic receptor in rat cerebral cortical membrane using [3H]yohimbine as radioligand.
Format: cell membranes
measure-name: Log Ki

molecule="Cl.c1cc2c3c(c1)CCNCC3CCC2 (configuration not stated)" reading=-5.9
molecule="C=CCOc1ccc2c3c1CCN(C)CC3CCC2.Cl (configuration not stated)" reading=-7.5
molecule="CN1CCc2ccc(Cl)c3c2C(CCC3)C1 (configuration not stated)" reading=-6
molecule="CCCN1CCc2cccc3c2C(CCC3)C1.Cl (configuration not stated)" reading=-6
molecule=CN1CCc2cccc(Cl)c2CC1 reading=-8.1
molecule="CN1CCc2c(Cl)ccc3c2C(CCC3)C1 (configuration not stated)" reading=-6.9
molecule=CN1CCc2cccc3c2[C@@H](CCC3)C1.Cl reading=-6.4
molecule="CCN1CCc2c(Cl)ccc3c2C(CCC3)C1 (configuration not stated)" reading=-6.5
molecule="Br.COc1ccc2c3c1CCN(C)CC3CC2 (configuration not stated)" reading=-6.9
molecule="Br.CN1CCc2c(Cl)ccc3c2C(CC3)C1 (configuration not stated)" reading=-8.1
molecule="CN1CCc2c(O)ccc3c2C(CCC3)C1.Cl (configuration not stated)" reading=-6.2
molecule=CN1CCc2ccc(Cl)c3c2[C@H](CCC3)C1 reading=-5.8
molecule="CCN1CCc2cccc3c2C(CCC3)C1.Cl (configuration not stated)" reading=-6.2
molecule="C=CCN1CCc2c(OC)ccc3c2C(CCC3)C1.Cl (configuration not stated)" reading=-6
molecule="O=C1CC2(CCCC2)CC(=O)N1CCCCN1CCc2c(Cl)ccc3c2C(CCC3)C1 (configuration not stated)" reading=-5.5
molecule="Cl.O=C1CC2(CCCC2)CC(=O)N1CCCCN1CCc2cccc3c2C(CCC3)C1 (configuration not stated)" reading=-5.9
molecule="COc1ccc2c3c1CCN(C)CC3CCC2.Cl (configuration not stated)" reading=-6.8
molecule="CN1CCc2cccc3c2C(CCCC3)C1.Cl (configuration not stated)" reading=-5.9
molecule="COc1ccc2c3c1CN(C)CCC3CCC2.Cl (configuration not stated)" reading=-5.9
molecule="CN1CCc2cccc3c2C(CCC3)C1.Cl (configuration not stated)" reading=-5.9
molecule=CN1CCc2c[nH]c3cccc(c23)C1.Cl reading=-6
molecule=CN1CCc2ccc(Cl)c3c2[C@@H](CCC3)C1 reading=-6.4
molecule=CN1CCc2c(Cl)ccc3c2[C@@H](CCC3)C1 reading=-7
molecule=Br.CN1CCc2c(Cl)ccc3[nH]cc(c23)C1 reading=-6.8
molecule=CN1CCc2c(Cl)ccc3c2[C@H](CCC3)C1 reading=-6.6
molecule=CN1CCc2cccc3c2[C@H](CCC3)C1.Cl reading=-5.6
molecule="Br.CN1CCc2ccc(Cl)c3c2C(CCCC3)C1 (configuration not stated)" reading=-6.2
